- Test system: NCI-H460
- assayOverview: relative viability (nuclei count vs DMSO), 5 days (fraction); higher = more cells survive
- studyConditions: first compound 0.253 µM
measure: relative viability
Simply state the number, no unit and no words.

>>> valueobserved("O=c1cc(-c2cccc3c2Sc2ccccc2S3)oc(N2CCOCC2)c1 + CS(=O)(=O)CCNCc1ccc(-c2ccc3ncnc(Nc4ccc(OCc5cccc(F)c5)c(Cl)c4)c3c2)o1 [Lapatinib] (partner 2 µM)")
1.52
>>> valueobserved("O=c1cc(-c2cccc3c2Sc2ccccc2S3)oc(N2CCOCC2)c1 + COc1cccc2cc(-c3nc([C@H]4CC[C@H](C(=O)O)CC4)n4ncnc(N)c34)[nH]c12 [OSI-027] (partner 0.5 µM)")
0.994
>>> valueobserved("COc1nc(C)cnc1NS(=O)(=O)c1cccnc1-c1ccc(-c2nnco2)cc1 [Zibotentan] + CCNC(=O)c1noc(-c2cc(C(C)C)c(O)cc2O)c1-c1ccc(CN2CCOCC2)cc1 [Luminespib] (partner 0.01 µM)")
0.0258

Now turn to the next compound.
Lab request: please report relative viability under test system NCI-H460 for O=c1cc(-c2cccc3c2Sc2ccccc2S3)oc(N2CCOCC2)c1 + CS(=O)(=O)N1CCN(Cc2cc3nc(-c4cccc5[nH]ncc45)nc(N4CCOCC4)c3s2)CC1 [Pictilisib] (partner 1 µM)
0.452
